Target: IRAK1 (Homo sapiens (Human))
Test: IRAK1 enzymatic assay (ADP-Glo luminescence)
Format: biochemical
pIC50: −log10 of the molar value.
// reported pIC50 per item
Endpoint name: pIC50

>>> print(df.to_string())
                                    compound  readout_value
 0  Cn1cc2c(n1)C(=O)NCCCCCCn1cc(cn1)-c1cccc(n1)C(=O)N2   6.00 to 7.00
 1  Cn1cc2c(n1)C(=O)NCC1CN(CCO1)CCn1cc(cn1)-c1cccc(n1)C(=O)N2 (stereo not shown)   5.30 to 6.00
 2  Cn1cc2c(n1)C(=O)NCCCCCCn1cc(cn1)-c1cccc(c1)C(=O)N2   6.00 to 7.00
 3  Cn1cc2c(n1)C(=O)NCCC(O)C(O)CCn1cc(cn1)-c1cccc(n1)C(=O)N2 (stereo not shown)   6.00 to 7.00
 4  Cn1cc2c(n1)C(=O)NCCCCn1cc(cn1)-c1cccc(n1)C(=O)N2   5.30 to 6.00
 5  O=C1Nc2cn(C3CCN(CCO)CC3)nc2C(=O)NCCCCCCn2cc(cn2)-c2cccc1n2   6.00 to 7.00
 6  O=C1Nc2cn(C3CCNCC3)nc2C(=O)NCCCCCCn2cc(cn2)-c2cccc1n2   6.00 to 7.00
 7  O=C1Nc2cn(C3CCN(C(=O)C4CC4(F)F)CC3)nc2C(=O)NCCCCCCn2cc(cn2)-c2cccc1n2 (stereo not shown)   6.00 to 7.00
 8  CS(=O)(=O)N1CCC(n2cc3c(n2)C(=O)NCCCCCCn2cc(cn2)-c2cccc(n2)C(=O)N3)CC1   6.00 to 7.00
 9  O=C1Nc2cn(C3CCOCC3)nc2C(=O)NCCCCCCn2cc(cn2)-c2cccc1c2   6.00 to 7.00
10  Cn1cc2c(n1)C(=O)NC1CCN(CC1O)C(=O)OCCn1cc(cn1)-c1cccc(n1)C(=O)N2 (stereo not shown)   5.30 to 6.00
11  Cn1cc2c(n1)C(=O)NC/C=C/CCCn1cc(cn1)-c1cccc(n1)C(=O)N2   6.00 to 7.00
12  O=C1Nc2cn(C3CCN(C(=O)NC4CC4)CC3)nc2C(=O)NCCCCCCn2cc(cn2)-c2cccc1n2   6.00 to 7.00
13  O=C1Nc2cn(C3CCOCC3)nc2C(=O)NCCSCCCn2cc(cn2)-c2cccc1n2   6.00 to 7.00
14  Cn1cc2c(n1)C(=O)NCC/C=C/CCn1cc(cn1)-c1cccc(n1)C(=O)N2   6.00 to 7.00
15  Cn1cc2c(n1)C(=O)NC/C=C\CCCn1cc(cn1)-c1cccc(n1)C(=O)N2   6.00 to 7.00

====

// reported pIC50 per item
Target: IRAK1 (Homo sapiens (Human), UniProt P51617)
Sequence (P51617 194-712): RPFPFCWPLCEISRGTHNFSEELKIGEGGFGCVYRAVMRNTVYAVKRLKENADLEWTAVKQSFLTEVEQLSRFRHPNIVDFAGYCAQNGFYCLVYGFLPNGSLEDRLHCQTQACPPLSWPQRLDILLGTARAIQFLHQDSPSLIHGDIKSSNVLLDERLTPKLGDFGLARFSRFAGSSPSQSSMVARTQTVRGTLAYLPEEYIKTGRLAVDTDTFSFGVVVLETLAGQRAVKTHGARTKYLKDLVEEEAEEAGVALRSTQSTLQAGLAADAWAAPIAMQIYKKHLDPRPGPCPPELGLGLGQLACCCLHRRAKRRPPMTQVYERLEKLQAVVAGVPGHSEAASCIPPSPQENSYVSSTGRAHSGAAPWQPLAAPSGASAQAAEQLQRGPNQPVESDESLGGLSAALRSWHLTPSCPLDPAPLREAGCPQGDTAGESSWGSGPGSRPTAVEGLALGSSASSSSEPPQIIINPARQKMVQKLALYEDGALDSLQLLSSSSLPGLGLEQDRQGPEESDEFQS
Assay: IRAK1 enzymatic assay (ADP-Glo luminescence)
Format: biochemical
pIC50: −log10 of the molar value.
Endpoint name: pIC50

>>> print(df.to_string())
                                    compound  endpoint_name  readout_value
 0  Cn1cc2c(n1)C(=O)NCC/C=C\CCn1cc(cn1)-c1cccc(n1)C(=O)N2          pIC50   6.00 to 7.00
 1  CN(C)CCN1CCC(n2cc3c(n2)C(=O)NCCCCCCn2cc(cn2)-c2cccc(n2)C(=O)N3)CC1          pIC50   6.00 to 7.00
 2  CN1CCCNC(=O)c2nn(C)cc2NC(=O)c2cccc(n2)-c2cnn(c2)CC1          pIC50   5.30 to 6.00
 3  Cn1cc2c(n1)C(=O)NCCCC(O)C(O)Cn1cc(cn1)-c1cccc(n1)C(=O)N2 (centres unmarked)          pIC50   6.00 to 7.00
 4  CN1CCNC(=O)c2nn(C)cc2NC(=O)c2cccc(n2)-c2cnn(c2)CC1          pIC50   5.30 to 6.00
 5  O=C1Nc2cn(C3CCOCC3)nc2C(=O)NCC[S+]([O-])CCCn2cc(cn2)-c2cccc1n2 (centres unmarked)          pIC50   6.00 to 7.00
 6  Cn1cc2c(n1)C(=O)NCC(O)C(O)CCCn1cc(cn1)-c1cccc(n1)C(=O)N2 (centres unmarked)          pIC50   6.00 to 7.00
 7  O=C1Nc2cn(C3CCOCC3)nc2C(=O)NCCCCCCn2cc(cn2)-c2cccc1n2          pIC50   6.00 to 7.00
 8  O=C1Nc2cn(C3CCOCC3)nc2C(=O)NCCS(=O)(=O)CCCn2cc(cn2)-c2cccc1n2          pIC50   6.00 to 7.00
 9  Cn1cc2c(n1)C(=O)NCCC/C=C\Cn1cc(cn1)-c1cccc(n1)C(=O)N2          pIC50   6.00 to 7.00
10  Cn1cc2c(n1)C(=O)NCC1CCN(CCn3cc(cn3)-c3cccc(n3)C(=O)N2)C1 (centres unmarked)          pIC50   5.30 to 6.00

====

// reported pIC50 per item
Molecular target: IRAK4 (Homo sapiens (Human), UniProt Q9NWZ3)
Sequence (Q9NWZ3 whole entry): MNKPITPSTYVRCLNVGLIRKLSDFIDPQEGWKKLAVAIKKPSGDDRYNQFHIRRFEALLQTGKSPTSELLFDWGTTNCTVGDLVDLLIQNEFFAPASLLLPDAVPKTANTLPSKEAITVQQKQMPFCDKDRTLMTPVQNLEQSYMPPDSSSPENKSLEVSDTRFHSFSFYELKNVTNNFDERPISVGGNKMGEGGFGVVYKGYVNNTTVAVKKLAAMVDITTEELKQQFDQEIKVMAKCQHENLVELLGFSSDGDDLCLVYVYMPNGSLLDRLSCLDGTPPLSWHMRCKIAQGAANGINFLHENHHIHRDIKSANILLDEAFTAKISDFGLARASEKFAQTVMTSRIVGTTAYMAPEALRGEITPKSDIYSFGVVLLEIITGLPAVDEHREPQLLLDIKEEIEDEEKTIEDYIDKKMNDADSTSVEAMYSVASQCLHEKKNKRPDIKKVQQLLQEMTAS
Test: IRAK4 enzymatic assay (ADP-Glo luminescence)
Conditions: human purified recombinant His-TEV-IRAK4 (1-460), ATP 2 μM, STK1-biotin peptide 300 nM
pIC50: −log10 of the molar value.
Endpoint name: pIC50

                                   compound  readout_value
0  Cn1cc2c(n1)C(=O)NCCC(O)C(O)CCn1cc(cn1)-c1cccc(n1)C(=O)N2 (stereo not shown)         > 7.00
1  CS(=O)(=O)N1CCC(n2cc3c(n2)C(=O)NCCCCCCn2cc(cn2)-c2cccc(n2)C(=O)N3)CC1         > 7.00
2  Cn1cc2c(n1)C(=O)NCC1CCN(CCn3cc(cn3)-c3cccc(n3)C(=O)N2)C1 (stereo not shown)         > 7.00
3  Cn1cc2c(n1)C(=O)NC/C=C/CCCn1cc(cn1)-c1cccc(n1)C(=O)N2         > 7.00

====

// reported IC50 per item
Target: IRAK4 (Homo sapiens (Human))
Assay: IRAK4 enzymatic assay (ADP-Glo luminescence)
Conditions: human purified recombinant His-TEV-IRAK4 (1-460), ATP 2 μM, STK1-biotin peptide 300 nM
Endpoint name: IC50

                                   molecule  endpoint_name   readout_value
0  O=C1Nc2cn(C3CCN(C(=O)C4CC4(F)F)CC3)nc2C(=O)NCCCCCCn2cc(cn2)-c2cccc1n2 (centres unmarked) [Compound 18]           IC50        < 100 nM
1  O=C1Nc2cn(C3CCN(C(=O)NC4CC4)CC3)nc2C(=O)NCCCCCCn2cc(cn2)-c2cccc1n2 [Compound 19]           IC50        < 100 nM
2  O=C1Nc2cn(C3CCOCC3)nc2C(=O)NCCOCCn2cc(cn2)-c2cccc1c2 [Compound 20]           IC50       > 5000 nM
3  Cn1cc2c(n1)C(=O)NC1CCN(CC1O)C(=O)OCCn1cc(cn1)-c1cccc(n1)C(=O)N2 (centres unmarked) [Compound 21]           IC50  100 to 1000 nM
4  CN1CCNC(=O)c2nn(C)cc2NC(=O)c2cccc(n2)-c2cnn(c2)CC1 [Compound 10]           IC50  100 to 1000 nM
5  Cn1cc2c(n1)C(=O)NCC(O)C(O)CCCn1cc(cn1)-c1cccc(n1)C(=O)N2 (centres unmarked) [Compound 31]           IC50        < 100 nM
6  Cn1cc2c(n1)C(=O)NCC1CN(CCO1)CCn1cc(cn1)-c1cccc(n1)C(=O)N2 (centres unmarked) [Compound 7]           IC50        < 100 nM
7  Cn1cc2c(n1)C(=O)NCCC/C=C\Cn1cc(cn1)-c1cccc(n1)C(=O)N2 [Compound 37]           IC50        < 100 nM

====

// reported pIC50 per item
Target: IRAK1 (Homo sapiens (Human), UniProt P51617)
Assay: IRAK1 enzymatic assay (ADP-Glo luminescence)
Assay type: biochemical
Details: human purified recombinant His-TEV-IRAK1 (194-712), ATP 1 μM; read-out: IRAK1 IC50
pIC50: −log10 of the molar value.
Endpoint name: pIC50

>>> print(df.to_string())
                                   compound  readout_value
0  O=C1Nc2cn(C3CCOCC3)nc2C(=O)NCCOCCn2cc(cn2)-c2cccc1c2 [Compound 20]         < 5.30
1  Cn1cc2c(n1)C(=O)NCCCC#CCn1cc(cn1)-c1cccc(n1)C(=O)N2 [Compound 38]         > 7.00
2  O=C1Nc2cn(C3CCOCC3)nc2C(=O)NCCCCCn2cc(cn2)-c2cccc1c2 [Compound 6]         < 5.30
3  Cn1cc2c(n1)C(=O)NCCC/C=C/Cn1cc(cn1)-c1cccc(n1)C(=O)N2 [Compound 25]         > 7.00
4  CN1CCNC(=O)c2nn(C)cc2NC(=O)c2cccc(n2)-c2cnn(c2)CCOC1=O [Compound 5]         > 7.00
5  Cn1cc2c(n1)C(=O)NCC1CN(CCO1)C(=O)OCCn1cc(cn1)-c1cccc(n1)C(=O)N2 (stereo not drawn) [Compound 8]         < 5.30
